Where do the numbers come from? From patent US20240228488A1.

Molecular target: human activated kallikrein enzyme (Homo sapiens, UniProt P03952)
Sequence (P03952 391-638 limits assumed): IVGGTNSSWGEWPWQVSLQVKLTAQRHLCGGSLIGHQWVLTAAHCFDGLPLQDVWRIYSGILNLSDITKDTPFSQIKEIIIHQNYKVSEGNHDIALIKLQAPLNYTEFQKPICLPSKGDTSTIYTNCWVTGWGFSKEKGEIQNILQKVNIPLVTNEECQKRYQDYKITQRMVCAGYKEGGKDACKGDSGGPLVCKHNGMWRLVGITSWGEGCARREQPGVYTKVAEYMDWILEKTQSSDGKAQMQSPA
Sequence (P03952 20-390 partner limits assumed): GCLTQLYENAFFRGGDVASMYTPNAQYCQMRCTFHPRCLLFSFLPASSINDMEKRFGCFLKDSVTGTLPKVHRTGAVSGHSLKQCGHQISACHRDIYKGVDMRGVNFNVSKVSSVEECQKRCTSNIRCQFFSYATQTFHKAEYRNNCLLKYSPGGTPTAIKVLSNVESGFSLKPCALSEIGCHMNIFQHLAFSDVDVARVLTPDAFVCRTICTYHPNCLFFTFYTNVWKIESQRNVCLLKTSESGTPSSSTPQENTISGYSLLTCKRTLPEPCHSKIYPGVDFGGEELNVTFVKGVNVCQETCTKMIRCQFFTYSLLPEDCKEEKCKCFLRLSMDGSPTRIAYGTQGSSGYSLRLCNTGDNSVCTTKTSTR
Experiment: Plasma kallikrein inhibition, fluorogenic PFR-AMC substrate, 500 pM activated kallikrein format
Type: biochemical
Details: 500 pM activated kallikrein, 300 uM PFR-AMC, 30 min preincubation, 10 min reaction; read-out: Primary Dose Response Assay: Average EC50
pEC50: −log10 of the molar value.
RESULT TYPE: pEC50

O=C(Nc1cc(N2CC[C@@H](O)[C@@H]2c2cn3cc(C4CC4)ccc3n2)ncn1)[C@H]1C[C@@H]1c1cccc(Cl)c1 :: 5.22 to 6.00
Cc1ccnc([C@H]2C[C@@H]2C(=O)Nc2ncc(C(F)(F)F)c(NCc3cn4cc(C5CC5)cc(N5CC(=O)N(C)C5=O)c4n3)n2)n1 (racemic) :: > 9.00
CN1C(=O)CN(c2cc(C3CC3)cn3cc(CNc4cc(NC(=O)[C@H]5C[C@@H]5c5nccc(C(F)F)n5)ncn4)nc23)C1=O (racemic) :: 8.00 to 9.00

Return reported pEC50; argument: `O=C1CN(c2cc(C3CC3)cn3cc(CNc4cc(NC(=O)[C@H]5C[C@@H]5c5cccc(Cl)c5)ncn4)nc23)C(=O)N1`
> 9.00

Same read-out for CN1CCN(c2cc(C3CC3)cn3cc(CNc4cc(NC(=O)[C@H]5C[C@@H]5c5cccc(Cl)c5)ncn4)nc23)CC1CO (stereo partly shown) ?
8.00 to 9.00

Same read-out for O=C(Nc1cc(NCc2cn3cc(C4CC4)ccc3n2)ncn1)[C@H]1C[C@@H]1c1cc(Cl)ccc1C(F)F (racemic) ?
7.00 to 8.00

Same read-out for CNC1CCN(c2cc(C3CC3)cn3cc(CNc4cc(NC(=O)[C@H]5C[C@@H]5c5cccc(Cl)c5)ncn4)nc23)C1 (stereo partly shown) ?
> 9.00

Same read-out for `CN1CC(c2cc(C3CC3)cn3cc(CNc4cc(NC(=O)[C@H]5C[C@@H]5c5cccc(Cl)c5)ncn4)nc23)C1` ?
> 9.00

====

Molecular target: plasma kallikrein (Homo sapiens, UniProt P03952)
Construct: from tissue
Sequence (P03952 391-638 limits assumed): as the sequence (P03952 391-638 limits assumed) above
Sequence (P03952 20-390 partner limits assumed): as the sequence (P03952 20-390 partner limits assumed) above
Assay: Neat human plasma assay, FXIIa contact pathway-activated, PFR-AMC substrate
Format: biochemical
Settings: citrated human plasma 78% final, 10 nM human FXIIa, 100 μM PFR-AMC; read-out: Human Plasma Assay: IC90
RESULT TYPE: IC90

Solved cases below.
Cc1ccnc([C@H]2C[C@@H]2C(=O)Nc2cc(N[C@H](C)c3cn4cc(C5CC5)cc(N5CC(=O)N(C)C5=O)c4n3)nc(OCCN(C)C)n2)n1 :: < 400 nM
Cc1ccnc([C@H]2C[C@@H]2C(=O)Nc2nc(NCc3cn4cc(C5CC5)cc(N5CC(=O)N(C)C5=O)c4n3)nc(C3CC3)n2)n1 (racemic) :: < 400 nM

Return reported IC90; argument: Cc1ccnc([C@H]2C[C@@H]2C(=O)Nc2cc(N[C@H](C)c3cn4cc(C5CC5)cc(N5C[C@@H]6C[C@@H]6C5=O)c4n3)ncn2)n1 (racemic)
< 400 nM

Same read-out for O=C(Nc1cc(NCc2cn3cc(C4CC4)cc(N4CCN5CC(O)CC5C4)c3n2)ccn1)[C@H]1C[C@@H]1c1cccc(Cl)c1 (stereo partly drawn) ?
400 to 1500 nM

Same read-out for O=C(Nc1cc(NCc2cn3cc(C4CC4)ccc3n2)ncn1)[C@H]1C[C@@H]1c1cc(Cl)ccn1 (single isomer, unassigned) ?
10000 to 48000 nM

Same read-out for `O=C(Nc1cc(NCc2cn3cc(C4CC4)cc(N4CCNC4=O)c3n2)ncn1)[C@H]1C[C@@H]1c1cc(Cl)ccn1` ?
400 to 1500 nM
